Test: Acute seven-day toxicity (LD50), single oral application
Design: species or system mice (white NMRI)
Details: mouse, in vivo, p.o., mice

[
  {
    "compound": "COCC1CN=C(c2ccccc2Cl)c2cc(Br)ccc2N1C (stereo not shown)",
    "qualifyingSign": "=",
    "LD50 at 168 h, mg/kg": 1580
  },
  {
    "compound": "CCOCC1CN=C(c2ccccc2Cl)c2cc(Br)ccc2N1C (stereo not shown)",
    "qualifyingSign": ">",
    "LD50 at 168 h, mg/kg": 1470
  },
  {
    "compound": "COCC1CN=C(c2ccccc2F)c2cc(Br)ccc2N1C (stereo not shown)",
    "qualifyingSign": "=",
    "LD50 at 168 h, mg/kg": 1580
  },
  {
    "compound": "COCC1CN=C(c2ccccc2Cl)c2cc(Cl)ccc2N1C (stereo not shown) [Standard I, reference compound]",
    "qualifyingSign": "=",
    "LD50 at 168 h, mg/kg": 1780
  }
]
